system.tested: truncated form of human NaV 1.8 with full channel activity (Homo sapiens, UniProt Q9Y5Y9)
Sequence (Q9Y5Y9 126-1722 limits assumed): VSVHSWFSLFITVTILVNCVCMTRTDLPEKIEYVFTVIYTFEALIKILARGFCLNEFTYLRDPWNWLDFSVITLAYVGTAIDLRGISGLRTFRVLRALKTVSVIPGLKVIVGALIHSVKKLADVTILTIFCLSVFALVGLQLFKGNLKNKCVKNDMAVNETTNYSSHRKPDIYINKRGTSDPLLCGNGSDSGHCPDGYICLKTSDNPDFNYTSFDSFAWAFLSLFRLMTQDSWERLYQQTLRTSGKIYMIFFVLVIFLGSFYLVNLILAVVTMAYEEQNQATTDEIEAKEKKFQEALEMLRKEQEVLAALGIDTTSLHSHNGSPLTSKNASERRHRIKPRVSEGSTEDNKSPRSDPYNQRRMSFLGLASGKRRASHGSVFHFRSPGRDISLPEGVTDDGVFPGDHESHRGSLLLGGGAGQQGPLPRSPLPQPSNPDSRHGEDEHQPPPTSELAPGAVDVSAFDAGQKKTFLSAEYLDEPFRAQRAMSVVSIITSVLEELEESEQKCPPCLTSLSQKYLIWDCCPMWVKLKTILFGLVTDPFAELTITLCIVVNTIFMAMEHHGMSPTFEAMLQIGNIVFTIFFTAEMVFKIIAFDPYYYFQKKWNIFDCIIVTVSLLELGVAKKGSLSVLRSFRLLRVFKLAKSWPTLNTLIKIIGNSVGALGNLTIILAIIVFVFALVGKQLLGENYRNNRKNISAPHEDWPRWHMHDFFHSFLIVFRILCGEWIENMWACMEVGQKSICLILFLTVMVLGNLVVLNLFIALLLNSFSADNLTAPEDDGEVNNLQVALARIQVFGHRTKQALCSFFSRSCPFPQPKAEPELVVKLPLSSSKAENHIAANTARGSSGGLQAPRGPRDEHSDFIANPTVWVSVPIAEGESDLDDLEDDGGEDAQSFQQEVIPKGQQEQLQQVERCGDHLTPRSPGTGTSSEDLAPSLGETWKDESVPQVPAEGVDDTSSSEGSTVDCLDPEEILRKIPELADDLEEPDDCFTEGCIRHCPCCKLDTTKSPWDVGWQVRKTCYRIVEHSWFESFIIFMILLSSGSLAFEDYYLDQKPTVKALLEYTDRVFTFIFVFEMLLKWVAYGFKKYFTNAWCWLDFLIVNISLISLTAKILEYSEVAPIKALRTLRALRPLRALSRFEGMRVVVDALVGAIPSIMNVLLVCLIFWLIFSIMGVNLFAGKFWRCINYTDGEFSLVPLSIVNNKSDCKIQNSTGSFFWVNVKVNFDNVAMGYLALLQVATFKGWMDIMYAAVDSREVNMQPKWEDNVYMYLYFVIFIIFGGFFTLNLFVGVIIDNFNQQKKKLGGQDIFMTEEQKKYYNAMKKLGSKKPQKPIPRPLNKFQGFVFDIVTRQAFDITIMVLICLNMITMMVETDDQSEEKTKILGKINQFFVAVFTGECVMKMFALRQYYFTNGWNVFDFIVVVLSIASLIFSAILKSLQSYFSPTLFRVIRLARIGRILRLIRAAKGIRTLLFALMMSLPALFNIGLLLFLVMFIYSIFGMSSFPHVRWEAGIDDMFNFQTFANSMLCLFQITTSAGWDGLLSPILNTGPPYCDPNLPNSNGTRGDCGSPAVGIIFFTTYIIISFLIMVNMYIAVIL
measurement.protocol: E-VIPR Assay Method A for detecting and measuring Nav inhibition (HEK cells, membrane potential FRET dyes, electrical stimulation)
Type: cell-based
condition.details: HEK cells expressing human NaV 1.8, HS (human serum) in compound loading buffer, 11 point dose response, top dose 3 μM, Table 20A, read-out: Nav 1.8 MedChem Optical Assay EVIPR Assay Method A HS IC50
property: IC50 (µM)
Please give a number only; it is taken to be in µM.

Please review the following examples before continuing.
compound	unit.text	quantitative.result
[2H]C([2H])([2H])Oc1cc(OC(F)(F)F)ccc1Oc1cc(OC(F)(F)F)ccc1C(=O)Nc1ccnc(C(N)=O)c1 [Compound 147]	µM	0.13
Cc1cnc(C(N)=O)cc1NC(=O)c1c(Oc2ccc(OC(F)(F)F)c(F)c2)ccc(Cl)c1F [Compound 245]	µM	0.036

get_value(item= COc1cc(OC(F)(F)F)ccc1Oc1cnc(C(F)(F)F)c(OC)c1C(=O)Nc1ccc(C(N)=O)nc1 [Compound 203] , readout=IC50) returns 0.046

get_value(item= [2H]C([2H])([2H])Oc1cc(OC(F)(F)F)ccc1Oc1ccc(C(F)(F)F)c(F)c1C(=O)Nc1ccc(C)c(C(N)=O)c1 [Compound 145] , readout=IC50) returns 0.009
